test system: RAW264.7; test: Immunomodulatory activity in LPS-stimulated mouse RAW264.7 cells assessed as decrease in CD80 expression at 50 uM incubated with LPS for 1 hr followed by compound addition measured after 24 hrs by flow cytometry; type: functional, cell-based
Active and inactive are the calls of the source. The calls are words filed in the database; no cut-off is given here.
Respond with a class label; see active, inactive

* O=C(O)c1ccccc1/C=N/c1ccccc1O | inactive
* COc1ccc(/C=N/c2ccccc2O)cc1O | active
* Oc1ccc(/C=N/c2ccccc2O)c(O)c1 | active
* Oc1ccc(/C=C/c2cc(O)cc(O)c2)cc1 | active
* O=C(O)c1ccc(/C=N/c2ccccc2O)cc1 | active
* COc1ccc(/C=N/c2ccccc2O)cc1 | active

Let's switch to this compound now.
How was Oc1ccccc1/C=N/c1ccccc1O classified in this test?
inactive

====

As shown below, each of these compounds has a reported inhibition (INH) value.
system: Mus musculus; experiment: Antiinflammatory activity in Balb/c mouse ear edema model assessed as inhibition of croton oil-induced ear edema at 0.1 mg/ear administered topically immediately post croton oil treatment and measured after 4 hrs relative to control; format: functional
Could you give me the number in %? Just the number is fine.

Worked cases, answers included:
• O=C(O)c1ccc(/C=N/c2ccccc2O)cc1 = 40
• COc1ccc(/C=N/c2ccccc2O)cc1 = 40
• Oc1ccc(/C=C/c2cc(O)cc(O)c2)cc1 = 40

Next item in the queue.
Endpoint output: inhibition (INH) of C[C@@H]1C[C@H]2[C@@H]3CCC4=CC(=O)C=C[C@]4(C)[C@@]3(F)[C@@H](O)C[C@]2(C)[C@@]1(O)C(=O)CO . Value?
90

====

test system: RAW264.7; test: Antiinflammatory activity in mouse RAW264.7 cells assessed as inhibition of LPS-induced TNFalpha production by measuring TNFalpha levels incubated with LPS for 1 hr followed by compound addition measured after 48 hrs by ELISA (reference value: 58.6 +/- 7.4 ng/ml); assay type: functional
Classify by measured Activity: MET if it is equal to or exceeds 40 ng/mL, NOT MET if it is smaller.

Completed entries (count: 6):
• O=C(O)c1ccc(/C=N/c2ccccc2O)cc1 = NOT MET
• COc1ccc(/C=N/c2ccccc2O)cc1O = MET
• O=C(O)c1ccccc1/C=N/c1ccccc1O = MET
• Oc1ccccc1/C=N/c1ccccc1O = MET
• Oc1ccc(/C=N/c2ccccc2O)c(O)c1 = MET
• Oc1ccc(/C=C/c2cc(O)cc(O)c2)cc1 [RESVERATROL] = NOT MET

Let's switch to this molecule now.
Can COc1ccc(/C=N/c2ccccc2O)cc1 be said to have Activity at or above 40 ng/mL?
MET

====

test system: RAW264.7; assay: Antiinflammatory activity in mouse RAW264.7 cells assessed as inhibition of LPS-induced IL-12 production by measuring IL-12 levels incubated with LPS for 1 hr followed by compound addition measured after 48 hrs by ELISA (reference value: 4839.2 +/- 2.2 pg/ml); type: functional
measurementName: Activity (pg/mL)
Could you give me the number in pg/mL? Just the number is fine.

• Oc1ccc(/C=C/c2cc(O)cc(O)c2)cc1 = 1036

Endpoint output: Activity of Oc1ccccc1/C=N/c1ccccc1O . Value?
5.5

Endpoint output: Activity of O=C(O)c1ccc(/C=N/c2ccccc2O)cc1 . Value?
12.7

Endpoint output: Activity of COc1ccc(/C=N/c2ccccc2O)cc1O . Value?
7.7

Endpoint output: Activity of COc1ccc(/C=N/c2ccccc2O)cc1 . Value?
4.7

Endpoint output: Activity of Oc1ccc(/C=N/c2ccccc2O)c(O)c1 . Value?
9.3

Endpoint output: Activity of O=C(O)c1ccccc1/C=N/c1ccccc1O . Value?
34
